species: Rattus norvegicus; assay: DrugMatrix - Regimen: Daily Repeat; type: toxicity, organism-based, Sprague-Dawley; set-up: regimen Daily Repeat, gender Male, age 6-8 weeks; details: in vivo, ip, 2 mg/kg, […], tissue Blood, route intraperitoneal, dose level High, time 14 day, vehicle 100 % SALINE
Observation type: ABSOLUTE SEGMENTED NEUTROPHIL (cells/µL)
The figure you give is taken to be in cells/µL; do not add the unit.

In: # ABSOLUTE SEGMENTED NEUTROPHIL lookup, item LEAD (II) ACETATE
Out: 3420

====

Kindly supply the reported ASPARTATE AMINOTRANSFERASE values for the records listed here.
species on record: Rattus norvegicus; assay: DrugMatrix - Regimen: Daily Repeat; type: toxicity, organism-based, Sprague-Dawley; parameters: regimen Daily Repeat, gender Male, age 6-8 weeks; conditions: in vivo, po, 0 mg/kg, 120 h, tissue Plasma, route oral GAVAGE, dose level Control, time 5 day, vehicle 100 % WATER
The figure you give is taken to be in u/L; do not add the unit.

In: # ASPARTATE AMINOTRANSFERASE lookup, item "Clc1cccc(Cl)c1N=C1NCCN1"
Out: 91

In: # ASPARTATE AMINOTRANSFERASE lookup, item CC(O)CO (stereo unspecified)
Out: 82.67

In: # ASPARTATE AMINOTRANSFERASE lookup, item "c1ccc([C@H]2CN3CCSC3=N2)cc1"
Out: 89.83

In: # ASPARTATE AMINOTRANSFERASE lookup, item "N[C@@H](Cc1ccc(O)c(O)c1)C(=O)O"
Out: 81.67

In: # ASPARTATE AMINOTRANSFERASE lookup, item "Nc1c2c(nc3ccccc13)CCCC2"
Out: 62.33

In: # ASPARTATE AMINOTRANSFERASE lookup, item "CN(C)CCCN1c2ccccc2Sc2ccc(Cl)cc21"
Out: 71

====

species: Rattus norvegicus; assay: DrugMatrix - Regimen: Daily Repeat; assay type: toxicity, organism-based, Sprague-Dawley; set-up: regimen Daily Repeat, gender Male, age 6-8 weeks; details: in vivo, po, 0 mg/kg, […], tissue Blood, route oral GAVAGE, dose level Control, time 28 day, vehicle .5 % CMC
Observation type: ABSOLUTE LYMPHOCYTE (cells/µL)
The figure you give is taken to be in cells/µL; do not add the unit.

In: # ABSOLUTE LYMPHOCYTE lookup, item "Cc1ccc2cc3c(ccc4ccccc43)c3c2c1CC3"
Out: 8890

====

Kindly supply the reported MEAN CORPUSCULAR HEMOGLOBIN values for the records listed here.
organism: Rattus norvegicus; experiment: DrugMatrix - Regimen: Daily Repeat; assay type: toxicity, organism-based, Sprague-Dawley; design: regimen Daily Repeat, gender Male, age 6-8 weeks; details: in vivo, po, 0 mg/kg, 72 h, tissue Blood, route oral GAVAGE, dose level Control, time 3 day, […]
The figure you give is taken to be in pg; do not add the unit.

In: # MEAN CORPUSCULAR HEMOGLOBIN lookup, item O=NN(CCCl)C(=O)NC1CCCCC1 [LOMUSTINE]
Out: 24.25

In: # MEAN CORPUSCULAR HEMOGLOBIN lookup, item Cc1ccc(-c2cc(C(F)(F)F)nn2-c2ccc(S(N)(=O)=O)cc2)cc1 [CELECOXIB]
Out: 25.05

In: # MEAN CORPUSCULAR HEMOGLOBIN lookup, item O=C(O)CCCc1ccc(N(CCCl)CCCl)cc1 [CHLORAMBUCIL]
Out: 25.05

In: # MEAN CORPUSCULAR HEMOGLOBIN lookup, item OC(Cn1cncn1)(Cn1cncn1)c1ccc(F)cc1F [FLUCONAZOLE]
Out: 25.05

In: # MEAN CORPUSCULAR HEMOGLOBIN lookup, item CC(C)C(=O)Nc1ccc([N+](=O)[O-])c(C(F)(F)F)c1 [FLUTAMIDE]
Out: 24.37

In: # MEAN CORPUSCULAR HEMOGLOBIN lookup, item C[C@@H]1CN(c2c(F)c(N)c3c(=O)c(C(=O)O)cn(C4CC4)c3c2F)C[C@H](C)N1 [SPARFLOXACIN]
Out: 24.25

In: # MEAN CORPUSCULAR HEMOGLOBIN lookup, item CCOC(=O)C1=C(COCCN)NC(C)=C(C(=O)OC)C1c1ccccc1Cl (centres undefined) [AMLODIPINE]
Out: 24.25

In: # MEAN CORPUSCULAR HEMOGLOBIN lookup, item Cc1noc(NS(=O)(=O)c2ccc(N)cc2)c1C [SULFISOXAZOLE]
Out: 23.93

In: # MEAN CORPUSCULAR HEMOGLOBIN lookup, item CC(C)(Oc1ccc(Cl)cc1)C(=O)O [CLOFIBRIC ACID]
Out: 24.47

In: # MEAN CORPUSCULAR HEMOGLOBIN lookup, item Cc1oncc1C(=O)Nc1ccc(C(F)(F)F)cc1 [LEFLUNOMIDE]
Out: 24.57

In: # MEAN CORPUSCULAR HEMOGLOBIN lookup, item CN(C)c1nc(N(C)C)nc(N(C)C)n1 [ALTRETAMINE]
Out: 24.25

In: # MEAN CORPUSCULAR HEMOGLOBIN lookup, item CCC(C)n1ncn(-c2ccc(N3CCN(c4ccc(OCC5COC(Cn6cncn6)(c6ccc(Cl)cc6Cl)O5)cc4)CC3)cc2)c1=O (centres undefined) [ITRACONAZOLE]
Out: 25.05

In: # MEAN CORPUSCULAR HEMOGLOBIN lookup, item O=c1oc2ccccc2c(O)c1Cc1c(O)c2ccccc2oc1=O [DICUMAROL]
Out: 24.48

In: # MEAN CORPUSCULAR HEMOGLOBIN lookup, item C[C@H]1O[C@@H](O[C@H]2[C@@H](O)C[C@H](O[C@H]3[C@@H](O)C[C@H](O[C@H]4CC[C@@]5(C)[C@H](CC[C@@H]6[C@@H]5C[C@@H](O)[C@]5(C)[C@@H](C7=CC(=O)OC7)CC[C@]65O)C4)O[C@@H]3C)O[C@@H]2C)C[C@H](O)[C@@H]1O [DIGOXIN]
Out: 24.07

====

species: Rattus norvegicus; test: DrugMatrix - Regimen: Daily Repeat; type: toxicity, organism-based, Sprague-Dawley; parameters: regimen Daily Repeat, gender Male, age 6-8 weeks; settings: in vivo, ip, 2 mg/kg, 120 h, tissue Blood, route intraperitoneal, dose level High, time 5 day, vehicle 100 % SALINE
Observation type: ABSOLUTE MONOCYTE (cells/µL)
The figure you give is taken to be in cells/µL; do not add the unit.

In: # ABSOLUTE MONOCYTE lookup, item LEAD (II) ACETATE
Out: 250

====

species on record: Rattus norvegicus; test: DrugMatrix - Regimen: Daily Repeat; format: toxicity, organism-based, Sprague-Dawley; design: regimen Daily Repeat, gender Male, age 6-8 weeks; conditions: in vivo, po, 0 mg/kg, 120 h, tissue Plasma, route oral GAVAGE, dose level Control, time 5 day, vehicle .5 % CMC
Kindly supply the reported CHLORIDE values for the records listed here.
The figure you give is taken to be in MEQ/L; do not add the unit.

In: # CHLORIDE lookup, item "CCCCc1oc2ccccc2c1C(=O)c1cc(I)c(OCCN(CC)CC)c(I)c1"
Out: 108

In: # CHLORIDE lookup, item CCCN1C[C@H](CSC)C[C@@H]2c3cccc4[nH]cc(c34)C[C@H]21 [PERGOLIDE]
Out: 103.5

In: # CHLORIDE lookup, item "ClC(Br)Br"
Out: 100

In: # CHLORIDE lookup, item "O=C(CCCN1CC=C(n2c(=O)[nH]c3ccccc32)CC1)c1ccc(F)cc1"
Out: 103.17

In: # CHLORIDE lookup, item "Cc1ccc(/N=C/N(C)/C=N/c2ccc(C)cc2C)c(C)c1"
Out: 99

In: # CHLORIDE lookup, item "COc1nc(C)nc(Cl)c1N=C1NCCN1"
Out: 98

In: # CHLORIDE lookup, item "CCn1cc(C(=O)O)c(=O)c2cc(F)c(N3CCNCC3)cc21"
Out: 99

In: # CHLORIDE lookup, item CC1CC(OC(=O)C(O)c2ccccc2)CC(C)(C)C1 (centres undefined) [CYCLANDELATE]
Out: 100.67

In: # CHLORIDE lookup, item "N=C(N)NCCN1CCCCCCC1"
Out: 100.67

====

Kindly supply the reported LYMPHOCYTE values for the records listed here.
organism: Rattus norvegicus; assay: DrugMatrix - Regimen: Daily Repeat; type: toxicity, organism-based, Sprague-Dawley; design: regimen Daily Repeat, gender Male, age 6-8 weeks; details: in vivo, po, 0 mg/kg, 120 h, tissue Blood, route oral GAVAGE, dose level Control, time 5 day, […]
The figure you give is taken to be in %; do not add the unit.

In: # LYMPHOCYTE lookup, item O=NN(CCCl)C(=O)NC1CCCCC1 [LOMUSTINE]
Out: 90.17

In: # LYMPHOCYTE lookup, item Cc1noc(NS(=O)(=O)c2ccc(N)cc2)c1C [SULFISOXAZOLE]
Out: 89

In: # LYMPHOCYTE lookup, item CN(C)c1nc(N(C)C)nc(N(C)C)n1 [ALTRETAMINE]
Out: 90.17

In: # LYMPHOCYTE lookup, item CCC(C)n1ncn(-c2ccc(N3CCN(c4ccc(OCC5COC(Cn6cncn6)(c6ccc(Cl)cc6Cl)O5)cc4)CC3)cc2)c1=O (stereo unspecified) [ITRACONAZOLE]
Out: 79.67

In: # LYMPHOCYTE lookup, item Cc1ccc(-c2cc(C(F)(F)F)nn2-c2ccc(S(N)(=O)=O)cc2)cc1 [CELECOXIB]
Out: 79.67

In: # LYMPHOCYTE lookup, item C[C@@H]1CN(c2c(F)c(N)c3c(=O)c(C(=O)O)cn(C4CC4)c3c2F)C[C@H](C)N1 [SPARFLOXACIN]
Out: 90.17

Hey, just so you know, these numbers are from ChEMBL document CHEMBL3885881.
